Taken from patent US8173693B2.

Listed below: melting point values for each entry.

{"columns": ["compound", "parameterMeasured", "measuredResult"],
 "data": [
  ["Cc1ccc(C)c2c1[nH]c1c(NS(=O)(=O)c3cc(Cl)c(Oc4ccc([N+](=O)[O-])cc4Cl)c(Cl)c3)cccc12", "melting point", "249 °C"],
  ["Cc1ccc(C)c2c1[nH]c1c(NS(=O)(=O)c3ccc(S(N)(=O)=O)cc3)cccc12", "melting point", "290 to 291 °C"],
  ["Cc1ccc(C)c2c1[nH]c1c(N(C)S(=O)(=O)c3cccc(C(F)(F)F)c3)cccc12 [Compound 15j]", "melting point", "192 to 194 °C"],
  ["Cc1ccc(C)c2c1[nH]c1c(NS(=O)(=O)c3ccccc3)cccc12", "melting point", "237 to 238 °C"],
  ["CCN(c1cccc2c1[nH]c1c(C)ccc(C)c12)S(=O)(=O)c1ccc(OC)cc1 [Compound 16c]", "melting point", "151 to 152 °C"]
]}

Task: Using the record for COc1ccc(S(=O)(=O)Nc2cccc3cc[nH]c23)cc1 , report its melting point.
Output: 161 to 162 °C

Task: Data request, read-out melting point, for COc1ccc(NC(=O)Nc2cccc3c2[nH]c2c(C)ccc(C)c23)cc1 [Compound 14b]
Output: 262 to 263 °C

Task: Looking for the measured melting point of Cc1ccc(S(=O)(=O)Nc2cccc3c2[nH]c2c(C)ccc(C)c23)cc1 , can you help?
Output: 185 to 186 °C

Task: Fill in: melting point of Cc1ccc(C)c2c1[nH]c1c(N(C)S(=O)(=O)c3ccc(Cl)s3)cccc12 [Compound 15k] is ___
Output: 179 to 181 °C

Task: Suppose we examine the compound Cc1ccc(C)c2c1[nH]c1c(NC(=O)Nc3ccccc3)cccc12 [Compound 14a] ; what melting point value has been reported?
Output: 300 to 301 °C
